subject_of_test: T1, Human ST2 (human, UniProt Q01638 19-328, limits assumed)
T1 construct: also called human ST2 protein; Interleukin 1 receptor-like 1
T1 sequence (looked up): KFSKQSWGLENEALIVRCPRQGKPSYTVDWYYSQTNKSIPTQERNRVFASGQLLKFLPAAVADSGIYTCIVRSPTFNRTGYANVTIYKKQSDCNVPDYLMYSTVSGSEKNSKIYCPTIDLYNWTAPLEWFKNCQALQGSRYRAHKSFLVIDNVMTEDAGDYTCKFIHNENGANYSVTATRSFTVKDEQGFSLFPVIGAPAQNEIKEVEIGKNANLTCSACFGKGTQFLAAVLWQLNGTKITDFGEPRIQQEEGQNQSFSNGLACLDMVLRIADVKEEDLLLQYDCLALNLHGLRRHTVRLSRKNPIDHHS
test_protocol: SPR (Carterra), antibody immobilized, ST2 analyte
reported_metric: pKd
// scale note: pKd = -log10(conc_M); give the bare number

Human ST2 IgG1 Antibody 28 (antibody, V domains shown, IgG1; also called ST2 Antibody 28) VH: QVQLVQSGAEVKKPGSSVKVSCKASGGTFGNYGINWVRQAPGQGLEWMGGIIPVFGTTNYAQKFQGRVTITADESTSTAYMELSSLRSEDTAVYYCARGLRYYYGMDVWGQGTTVTVSS VL: DIVMTQSPLSLPVTPGEPASISCRSSQSLLHSNGYNYLDWYLQKPGQSPQLLIYGASTLQSGVPDRFSGSGSGTDFTLKISRVEAEDVGVYYCMQALQNPLTFGGGTKVEIKR    6.37

Next:
Enquiry: Please supply the value of reported pKd for the item Human ST2 IgG1 Antibody 87 (antibody, V domains shown, IgG1; also called ST2 Antibody 87) VH: QVQLVQSGAEVKKPGASVKVSCKASGYTFAGQYMHWVRQAPGQGLEWMGNINPSGGSTSYAQRFQGRVTMTRDTSTSTVYMELSSLRSEDTAVYYCARGDYSETYYYYMDVWGKGTTVTVSS VL: DIQMTQSPSSLSASVGDRVTITCRASQHINSNLNWYQQKPGKAPKLLIYGASSLQSGVPSRFSGSGSGTDFTLTISSLQPEDFATYYCQQSYTTPFTFGPGTKVDIKR
Return: 6.19
